List of pEC50 values.
Biological target: human PPARγ ligand-binding domain (Gal4 chimera) (Homo sapiens, UniProt P37231)
Construct: coding for the hinge region and LBD of the canonical isoform of the respective nuclear receptor; expressed in transfected cells; host or cells: HEK293T
Sequence (P37231 238-503 limits assumed): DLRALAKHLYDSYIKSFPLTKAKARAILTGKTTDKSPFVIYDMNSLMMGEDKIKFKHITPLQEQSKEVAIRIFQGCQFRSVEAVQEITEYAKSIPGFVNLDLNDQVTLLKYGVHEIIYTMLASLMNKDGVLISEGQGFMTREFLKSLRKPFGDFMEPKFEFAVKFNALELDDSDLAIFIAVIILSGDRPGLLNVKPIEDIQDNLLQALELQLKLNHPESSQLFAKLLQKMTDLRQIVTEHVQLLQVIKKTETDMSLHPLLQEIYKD
Assay: Gal4 hybrid reporter gene assay, PPARγ
Assay type: cell-based
Settings: Supplementary Table 1, chromene derivatives; mean ± SEM, n ≥ 2; read-out: PPAR EC50
pEC50: −log10 of the molar value.
test_readout: pEC50

chemical_string	subject_of_test	numeric_value
O=C(O)CCc1cccc(NC(=O)c2ccccc2NC(=O)C2=Cc3cccc(Cl)c3OC2)c1	human PPARγ ligand-binding domain (Gal4 chimera) (Homo sapiens, UniProt P37231)	5.62
O=C(O)CCc1cccc(NC(=O)c2ccccc2NC(=O)C2=Cc3cccc(O)c3OC2)c1	human PPARγ ligand-binding domain (Gal4 chimera) (Homo sapiens, UniProt P37231)	5.10
O=C(O)CCc1cccc(NC(=O)c2ccccc2NC(=O)C2=Cc3cc(F)ccc3OC2)c1	human PPARγ ligand-binding domain (Gal4 chimera) (Homo sapiens, UniProt P37231)	5.34
Cc1cccc2c1OCC(C(=O)Nc1ccccc1C(=O)Nc1cccc(CCC(=O)O)c1)=C2	human PPARγ ligand-binding domain (Gal4 chimera) (Homo sapiens, UniProt P37231)	5.51
O=C(O)CCc1cccc(NC(=O)c2ccccc2NC(=O)C2=Cc3ccccc3OC2)c1	human PPARγ ligand-binding domain (Gal4 chimera) (Homo sapiens, UniProt P37231)	5.11

###

biological target: human FXR:retinoid X receptor (RXR) heterodimer (Homo sapiens); construct: pcDNA3-hFXR[32] and pSG5-hRXR[33] served for receptor overexpression in the full-length FXR assay; expressed in transfected cells; host or cells: HeLa; experiment: Full-length FXR reporter gene assay (BSEP response element) in HeLa cells; assay type: cell-based; conditions: HeLa; mean ± SEM, n = 3; read-out: EC50 [μM] FXR
Sequence (P19793 whole entry): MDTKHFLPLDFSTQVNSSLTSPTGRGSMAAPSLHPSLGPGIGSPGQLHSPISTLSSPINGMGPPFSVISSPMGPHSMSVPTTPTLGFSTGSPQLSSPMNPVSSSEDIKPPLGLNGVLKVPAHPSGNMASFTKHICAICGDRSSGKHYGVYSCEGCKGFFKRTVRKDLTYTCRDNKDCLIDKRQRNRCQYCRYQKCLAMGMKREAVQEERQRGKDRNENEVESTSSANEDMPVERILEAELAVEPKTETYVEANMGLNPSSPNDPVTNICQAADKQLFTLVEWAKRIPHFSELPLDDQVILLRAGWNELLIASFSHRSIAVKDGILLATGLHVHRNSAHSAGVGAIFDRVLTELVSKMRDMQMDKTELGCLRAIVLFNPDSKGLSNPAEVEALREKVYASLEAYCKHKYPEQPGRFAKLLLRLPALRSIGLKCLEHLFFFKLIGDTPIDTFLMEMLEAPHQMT
Sequence (Q96RI1 whole entry): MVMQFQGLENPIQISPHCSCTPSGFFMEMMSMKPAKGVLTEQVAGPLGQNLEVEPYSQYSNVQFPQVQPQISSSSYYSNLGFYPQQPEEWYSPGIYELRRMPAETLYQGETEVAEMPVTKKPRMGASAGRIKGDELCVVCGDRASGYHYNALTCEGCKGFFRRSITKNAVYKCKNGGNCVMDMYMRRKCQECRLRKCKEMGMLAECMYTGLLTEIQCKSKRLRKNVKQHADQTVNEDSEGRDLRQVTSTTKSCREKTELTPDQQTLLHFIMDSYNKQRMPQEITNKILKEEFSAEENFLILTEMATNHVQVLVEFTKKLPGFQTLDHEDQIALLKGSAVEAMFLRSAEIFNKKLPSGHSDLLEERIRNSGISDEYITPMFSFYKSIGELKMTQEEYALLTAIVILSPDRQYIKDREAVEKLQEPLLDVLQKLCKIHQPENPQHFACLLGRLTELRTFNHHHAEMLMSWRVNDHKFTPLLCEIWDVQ
Hi! Could you tag entries with EC50 below 2 µM as true, and those at or above as false? Much appreciated.

chemical_string	qualitative_label
O=C(O)CCc1cccc(NC(=O)c2ccccc2NC(=O)c2ccc(-c3cccs3)cc2)c1	true
O=C(O)Cc1cccc(NC(=O)c2ccccc2NC(=O)c2ccc3ccccc3c2)c1	false
COc1ccc(NC(=O)c2ccc3ccccc3c2)c(C(=O)Nc2cccc(CCC(=O)O)c2)c1	false
O=C(O)CNc1cccc(NC(=O)c2ccccc2NC(=O)c2ccc3ccccc3c2)c1	true
O=C(O)CCc1cccc(NC(=O)c2ccccc2NC(=O)c2ccc(-c3ccco3)cc2)c1	false
O=C(O)CCc1cccc(NC(=O)c2cc(Cl)ccc2NC(=O)c2ccc3ccccc3c2)c1	false
O=C(O)CCc1cccc(NC(=O)c2ccccc2NC(=O)c2ccc(-c3ccoc3)cc2)c1	true
O=C(O)CCc1cccc(NC(=O)c2ccccc2NC(=O)c2ccc(-c3cocn3)cc2)c1	false
CC(C)(Nc1cccc(NC(=O)c2ccccc2NC(=O)c2ccc3ccccc3c2)c1)C(=O)O	true
COc1ccc(C(=O)Nc2cccc(NCC(=O)O)c2)c(NC(=O)c2ccc(-c3ccoc3)cc2)c1	true
O=C(O)CCc1cccc(NC(=O)c2cc(O)ccc2NC(=O)c2ccc3ccccc3c2)c1	false
Cc1ccc(NC(=O)c2ccc3ccccc3c2)c(C(=O)Nc2cccc(CCC(=O)O)c2)c1	false
O=C(O)CCc1cccc(NC(=O)c2ccccc2NC(=O)c2ccc(-c3ccccc3)cc2)c1	true
O=C(O)CCc1cccc(NC(=O)c2ccc(O)cc2NC(=O)c2ccc3ccccc3c2)c1	false
O=C(O)CCc1cccc(NC(=O)c2ccccc2NC(=O)c2ccc(-c3ccon3)cc2)c1	false
O=C(O)COc1cccc(NC(=O)c2ccccc2NC(=O)c2ccc3ccccc3c2)c1	false

Every entry's value here was drawn from paper PMC9814779.
